- Read-out: Interleukin-1 alpha (IL1a), IL1A (gene 3552)
- Experiment notes: BSK_LPS_IL1a: BioMAP Diversity Plus: LPS Assay for Interleukin-1 alpha (IL1a) Biomarker Activity (AID 2283080)
- Condition label: primary human HUVEC with PBMC; actives raise or lower the signal
Calls of active or inactive are those of the source. Rule for the calls: active = hit-call score of the fitted dose curve at least 0.9, where 1 is the maximum; inactive = score below 0.9.
Respond only with the outcome that fits, drawn from yes (1) for active, no (0) for inactive

Query: Which outcome did this test record for the compound `C=CCc1ccc(O)c(OC)c1` ?
Reply: no (0)

Query: `Cc1ccc(N(C)C)cc1` ?
Reply: no (0)

Query: What do you get for `Oc1ccc2ccccc2c1N=Nc1ccccc1` ?
Reply: no (0)

Query: Please give the result for `CCCCCCOCCO` too.
Reply: no (0)

Query: `COc1cc(C=O)ccc1O` ?
Reply: no (0)

Query: `Cc1ccc(C)c(O)c1C` ?
Reply: no (0)

Query: Would you kindly repeat that for `CC(=O)OC/C=C(\C)CCC=C(C)C` ?
Reply: no (0)

Query: // query: `O=C(N[C@@H](Cc1ccccc1)[C@@H](O)C(=O)N1C[C@@H](O)[C@@H](O)C1)c1cc2cc(Cl)ccc2[nH]1`
Reply: no (0)

Query: Do the same for `C1CCC(SSC2CCCCC2)CC1` please
Reply: no (0)

Query: What do you have for `O=c1[nH]cc(F)c(=O)[nH]1` ?
Reply: no (0)

Query: Also `Cc1c(C(=O)O)c(O)cc2c1C(=O)c1c(O)c([C@@H]3O[C@H](CO)[C@@H](O)[C@H](O)[C@H]3O)c(O)c(O)c1C2=O` , if possible.
Reply: no (0)

Query: What about this compound? `COCCOCCOC`
Reply: no (0)

Query: Moving on to the next compound: `CC(C)c1ccc(C(=O)N=C(N)N)cc1S(C)(=O)=O`
Reply: no (0)

Query: Same thing, different compound: `Cc1ccc(Cl)cc1`
Reply: no (0)

Query: Moving on to the next compound: `OC[C@@H](O)[C@@H](O)[C@H](O)[C@H](O)CO`
Reply: no (0)

Query: Also `CC1(C)NC(=O)NC1=O` ?
Reply: no (0)

Query: What would you report for `COc1cc(-c2nc(NC(=O)c3cc4cc(C)cc(C)c4n3CC(=O)O)sc2CCC2CCCCC2)c(OC)cc1Cl` ?
Reply: yes (1)

Query: Query `CCc1c(C(=O)NN2CCCCC2)nn(-c2ccc(Cl)cc2Cl)c1-c1ccc(Br)cc1` next
Reply: yes (1)

Query: Let us now turn to `CCOC(=O)C(C)(C)Oc1ccc(Cl)cc1`
Reply: no (0)

Query: Do the same for `Cc1ccc(C)c(C)c1` please
Reply: no (0)

Query: Next: `CCCCCCCCCCO`
Reply: no (0)

Query: Check `CC(=O)OCCOCCOCCOC(C)=O` too.
Reply: no (0)

Query: Moving on to `CCCCCCCCCCCCCO`
Reply: no (0)

Query: For `NCC1(Cc2noc(=O)[nH]2)CCCCC1` then?
Reply: no (0)

Query: And then `COc1cc(S(=O)(=O)O)c(C)cc1N=Nc1c(O)ccc2cc(S(=O)(=O)O)ccc12` , what is it?
Reply: no (0)

Query: Try this compound too: `C[Si]1(C)O[Si](C)(C)O[Si](C)(C)O[Si](C)(C)O1`
Reply: no (0)

Query: Same question for `CC(C)(C)c1cc(O)c(C(C)(C)C)cc1O` please.
Reply: no (0)

Query: Input `O=c1c(O)c(-c2ccc(O)c(O)c2)oc2cc(O)cc(O)c12`
Reply: no (0)

Query: Quick one: `Nc1ccc2c(c1)C(=O)c1ccccc1C2=O`
Reply: no (0)

Query: Next compound: `Cc1cccc([N+](=O)[O-])c1C`
Reply: no (0)

Query: Try this compound next: `COC(=O)c1ccc(O)cc1`
Reply: no (0)

Query: Cool, now `NCCO`
Reply: no (0)

Query: Try the compound `COc1ccc(S(=O)(=O)N2C(=O)[C@@](c3ccccc3OC)(N3C[C@H](O)C[C@H]3C(=O)N(C)C)c3cc(Cl)ccc32)c(OC)c1`
Reply: no (0)

Query: Next compound: `CCCCCCCCCCC`
Reply: no (0)

Query: Moving on to the next compound: `C[C@]12C=CC(=O)C=C1CC[C@@H]1[C@@H]2C(=O)C[C@@]2(C)[C@H]1CC[C@]2(O)C(=O)CO`
Reply: no (0)

Query: Next up: `CC=Cc1ccc(O)c(OC)c1`
Reply: no (0)

Query: What about this compound? `Cc1cc(=O)[nH]c(=S)[nH]1`
Reply: no (0)

Query: Moving on to the next compound: `NS(=O)(=O)c1cc2c(cc1Cl)NCNS2(=O)=O`
Reply: no (0)

Query: Ok, now `Oc1ccc2c(c1)OC[C@@H](N1CCC(O)(c3ccc(F)cc3)CC1)[C@H]2O`
Reply: no (0)

Query: Cool, now `CCCCCC(=O)O`
Reply: no (0)

Query: Entry to check: `Cc1ccccc1Cl`
Reply: no (0)

Query: Same for `CC(=O)Oc1ccccc1C(=O)O`
Reply: no (0)

Query: Moving on to `CCCCOC(=O)CCCCCCCCC(=O)OCCCC`
Reply: no (0)

Query: For CC(=O)C(C)=CC1C(C)=CCCC1(C)C (stereo not given) then?
Reply: no (0)

Query: Then `CCOc1ccc2c(c1)C(C)=CC(C)(C)N2` ?
Reply: no (0)

Query: Another compound to check: `O=C(O)Cc1ccccc1Nc1c(Cl)cccc1Cl`
Reply: no (0)

Query: Repeat for the following compound: `Cc1cc(NC(=O)C(=O)O)cc(C)c1Oc1ccc(O)c2c1CCC2`
Reply: no (0)

Query: Same for `O=C(O)CCCCC(=O)O`
Reply: no (0)

Query: // repeat for CC(CO)OC(C)CO (stereo not given) (tested in a mixture with another compound) and report
Reply: no (0)

Query: Same question, Cc1nc(-c2ccc3c(c2)CCN(CCC2CCC(NC(=O)/C=C/c4ccc(F)cc4)CC2)CC3)no1 (stereo not given) this time
Reply: no (0)
